Test system: TK-10 renal
Assay: NCI tumour cell line growth inhibition, 48 h
Where a SMILES comes first, the peptide text is derived from it. [ ]: non-standard residue; d: D form. The star is where a group is joined. X28 = COC1=CC(=O)N(C(=O)[C@@H](O*)C(C)C)[C@H]1Cc1ccccc1; Bn2Val = CC(C)[C@@H](C(=O)*)N(Cc1ccccc1)Cc1ccccc1; NMeV = CN[C@H](C(=O)O)C(C)C; dNMeA = CN[C@H](C)C(=O)O

- compound: "CC(=O)OC12CC(C(F)(F)F)(C(F)(F)F)OC1(OC(C)=O)CC(C(F)(F)F)(C(F)(F)F)O2 (centres undefined)"
  scaleUnit: "µM"
  comparativeSign: ">"
  TGI: 100
- compound: "c1ccc(C(c2cccc3c2ccc2ccccc23)C(c2ccccc2)c2cccc3c2ccc2ccccc23)cc1 (centres undefined)"
  scaleUnit: "µM"
  comparativeSign: ">"
  TGI: 100
- compound: "Cc1cc(Br)cc(C)c1NC(=O)C(=O)C(C(=O)c1ccncc1)C1OC(=O)c2ccccc21 (centres undefined)"
  scaleUnit: "µM"
  comparativeSign: ">"
  TGI: 100
- compound: "O=c1cc(-c2ccccc2)oc2ccc(OC/C(=N/O)c3ccc(F)cc3)cc12"
  scaleUnit: "µM"
  comparativeSign: ">"
  TGI: 50
- compound: "Cc1ccc(/C(O)=C/c2nc3cccnc3[nH]c2=O)cc1"
  scaleUnit: "µM"
  comparativeSign: ">"
  TGI: 100
- compound: "Cc1ccc(NC(=O)C(=O)C(C(=O)c2ccc3ccccc3c2)C2OC(=O)c3ccccc32)c(C)c1 (centres undefined)"
  scaleUnit: "µM"
  comparativeSign: "="
  TGI: 42.9
- compound: "COC1=CC(=O)N(C(=O)[C@@H](OC(=O)[C@@H](C)N(C)C(=O)[C@@H]2CCCN2C(=O)[C@H](C(C)C)N(C)C(=O)[C@@H](NC(=O)[C@H](C(C)C)N(Cc2ccccc2)Cc2ccccc2)C(C)C)C(C)C)[C@H]1Cc1ccccc1 (Bn2Val-V[NMeV]P[dNMeA]-X28)"
  scaleUnit: "µM"
  comparativeSign: ">"
  TGI: 100
- compound: "CC(=O)NNC(=S)/N=C\\c1c(O)c2ccccc2oc1=O"
  scaleUnit: "µM"
  comparativeSign: ">"
  TGI: 100
- compound: "Oc1[nH]c(N=C2N=c3ccccc3=N2)c2ccccc12"
  scaleUnit: "µM"
  comparativeSign: "="
  TGI: 55.4
- compound: "O=C(/C=C/c1ccc2c(c1)OCO2)NCCc1ccco1"
  scaleUnit: "µM"
  comparativeSign: ">"
  TGI: 100
- compound: "CN(C)C(=S)/N=c1\\ssc(=S)n1Cc1cccs1"
  scaleUnit: "µM"
  comparativeSign: ">"
  TGI: 81.6
- compound: "Nc1nc2c(c(-c3ccccc3Cl)n1)COC/C2=C\\c1ccccc1Cl"
  scaleUnit: "µM"
  comparativeSign: "="
  TGI: 31.9
- compound: "Cc1cc2c(c3nocc13)C(=O)c1ccccc1C2=O"
  scaleUnit: "µM"
  comparativeSign: ">"
  TGI: 100
- compound: "COc1cc(OC)cc(-c2nc3sccn3c2/C=N/N=C(N)N)c1"
  scaleUnit: "µM"
  comparativeSign: "="
  TGI: 12.6
- compound: "COc1cc2c(c(O)c1C)C(=O)CC(c1ccccc1)O2 (centres undefined)"
  scaleUnit: "µM"
  comparativeSign: "="
  TGI: 77.3
- compound: "Cc1cn(CCC(N)C(=O)O)c(=O)[nH]c1=O (centres undefined)"
  scaleUnit: "µM"
  comparativeSign: ">"
  TGI: 100
- compound: "COc1ccc(C(C#N)=C2C=CC(=NO)C=C2)cc1"
  scaleUnit: "µM"
  comparativeSign: "="
  TGI: 8.72
- compound: "CCCCCCCN(CCCCCCC)C(=N)c1ccnc2ccccc12"
  scaleUnit: "µM"
  comparativeSign: "="
  TGI: 2.97
- compound: "C=C1C(=O)[C@]23C[C@H]1C[C@@H](O)[C@H]2[C@]1(COC3=O)[C@@H](OC(C)=O)CC[C@@](C)(COC(C)=O)[C@H]1C=O"
  scaleUnit: "µM"
  comparativeSign: ">"
  TGI: 50
- compound: "Nc1ncn(C2OC(COP(=O)(O)O)C(O)C2O)c(=O)n1 (centres undefined)"
  scaleUnit: "µM"
  comparativeSign: ">"
  TGI: 100
- compound: "COc1cccc2c1C(=O)c1c(O)c3c(c(O)c1C2=O)C[C@@](O)(C(C)=O)C[C@@H]3OC1CC([N+]([O-])(Cc2ccccc2)Cc2ccccc2)C(O)C(C)O1 (some centres undefined)"
  scaleUnit: "µM"
  comparativeSign: "="
  TGI: 3.37
- compound: "COC1=CC(=O)c2c(cc(COP(N)(=O)N(CCCl)CCCl)n2C)C1=O (centres undefined)"
  scaleUnit: "µM"
  comparativeSign: "="
  TGI: 5.61
- compound: "COC1=CC(=O)C(Br)=CC1=O"
  scaleUnit: "µM"
  comparativeSign: "="
  TGI: 35.8
- compound: "C/C(=N\\NC(=O)CC#N)C(CN1CCCCC1)C(c1ccccc1)c1c(O)c2ccccc2oc1=O (centres undefined)"
  scaleUnit: "µM"
  comparativeSign: ">"
  TGI: 100
